MIC, A. baumannii DH-243: measured values
Reply numerically in µg/mL, unit not repeated.

Check out these entries, answers already filled in.
[[record]]
molecule = "CCOC(=O)c1ccc(N=Nc2c(N)nn3c(N)c(C#N)c(-c4ccc(Cl)cc4)nc23)cc1"
outcome_measure = "MIC"
readout_number = 4

[[record]]
molecule = "CCOC(=O)c1ccc(N=Nc2c(N)n[nH]c2N)cc1"
outcome_measure = "MIC"
readout_number = 0.25

[[record]]
molecule = "CCOC(=O)c1ccc(N=Nc2c(N)nn3c(-c4ccco4)cc(-c4ccccc4)nc23)cc1"
outcome_measure = "MIC"
readout_number = 8

[[record]]
molecule = "CCOC(=O)c1ccc(N=Nc2c(N)nn3c(N)c(C#N)c(-c4ccc(OC)cc4)nc23)cc1"
outcome_measure = "MIC"
readout_number = 2

[[record]]
molecule = "CCOC(=O)c1ccc(N=Nc2c(N)nn3c(C)cc(C)nc23)cc1"
outcome_measure = "MIC"
readout_number = 0.5

[[record]]
molecule = "CCOC(=O)c1ccc(N=Nc2c(N=Cc3ccc(OC)cc3)n[nH]c2N)cc1"
outcome_measure = "MIC"
readout_number = 2


Ask: Give recorded MIC with A. baumannii DH-243 for the following molecule: CCOC(=O)c1ccc(N=Nc2c(N=Cc3ccc(N(C)C)cc3)n[nH]c2N)cc1
Reply: 0.5

Ask: Entry to check: CCOC(=O)c1ccc(N=Nc2c(N)nn(-c3ccccc3)c2N)cc1
Reply: 1

* * *

zone of inhibition at 10000 µM reference
test system: A. baumannii DH-243; assay: Agar well-diffusion assay; format: cell-based; details: Acinetobacter baumannii, DH243; A. baumannii DH-243; 50 µL of 10 mM per well; read-out: Diameter of Inhibition Zones (AZOI)
Please respond with the number in mm and leave the unit unwritten.

Ask: Entry CCOC(=O)c1ccc(N=Nc2c(N=Cc3ccc(N(C)C)cc3)n[nH]c2N)cc1 [Compound 5a] has what zone of inhibition at 10000 µM?
Reply: 28

Ask: Consider next the molecule CCOC(=O)c1ccc(N=Nc2c(N)nn3c(O)c(C#N)c(-c4ccc(Cl)cc4)nc23)cc1 [Compound 10b] in the same way.
Reply: 24.2

Ask: Another: CCOC(=O)c1ccc(N=Nc2c(N)nn3c(N)c(C#N)c(-c4ccc(Cl)cc4)nc23)cc1 [Compound 9c]
Reply: 23.9

* * *

target: hCA-II (Homo sapiens, UniProt P00918); assay: Carbonic anhydrase isoenzyme inhibition assay; details: Lineweaver–Burk graphs
We label by threshold. Values of Ki strictly beneath 100 nM are t. Values of 100 nM and up are f.

Some solved cases for reference:
[[record]]
compound = "CCOC(=O)c1ccc(N=Nc2c(N=Cc3ccc(N(C)C)cc3)n[nH]c2N)cc1"
label_value = "f"

[[record]]
compound = "CCOC(=O)c1ccc(N=Nc2c(N)nn3c(N)c(C#N)c(-c4ccc(N(C)C)cc4)nc23)cc1"
label_value = "f"

[[record]]
compound = "CCOC(=O)c1ccc(N=Nc2c(N)nn3c(O)c(C#N)c(-c4ccc(N(C)C)cc4)nc23)cc1 [Compound 10a]"
label_value = "f"

[[record]]
compound = "CCOC(=O)c1ccc(N=Nc2c(N)nn3c(C)cc(C)nc23)cc1"
label_value = "f"


Consider the additional compound presented here.
Ask: Record CCOC(=O)c1ccc(N=Nc2c(N)n[nH]c2N)cc1 : is its Ki strictly below 100 nM?
Reply: t

* * *

tested on: E. faecalis DH-5478; test: Agar well-diffusion assay; assay type: cell-based; conditions: Enterococcus faecalis, DH5478; E. faecalis DH-5478; 50 µL of 10 mM per well; read-out: Diameter of Inhibition Zones (AZOI)
Each item that follows carries a reported zone of inhibition at 10000 µM.
Quick note: give the figure in mm, leave out the unit.

[[record]]
compound = "CCOC(=O)c1ccc(N=Nc2c(N)n[nH]c2N)cc1"
readout_number = 30.6

[[record]]
compound = "CCOC(=O)c1ccc(N=Nc2c(N)nn3c2N=C(C)CC3=O)cc1"
readout_number = 23

[[record]]
compound = "CCOC(=O)c1ccc(N=Nc2c(N)nn3c(O)c(C#N)c(-c4ccc(N(C)C)cc4)nc23)cc1 [Compound 10a]"
readout_number = 29.8

[[record]]
compound = "CCOC(=O)c1ccc(N=Nc2c(N)nn3c(O)c(C#N)c(-c4ccc(Cl)cc4)nc23)cc1 [Compound 10b]"
readout_number = 25.1


Ask: Form field: reported zone of inhibition at 10000 µM of CCOC(=O)c1ccc(N=Nc2c(N)nn3c(N)c(C#N)c(-c4ccc(N(C)C)cc4)nc23)cc1
Reply: 28.7

Ask: Another compound to check: CCOC(=O)c1ccc(N=Nc2c(N)nn(C(O)=CC#N)c2N)cc1
Reply: 22.1

Ask: Further, for CCOC(=O)c1ccc(N=Nc2c(N)nn(C(N)=S)c2N)cc1 ?
Reply: 21.3

Ask: Further, for CCOC(=O)c1ccc(N=Nc2c(N)nn(-c3ccccc3)c2N)cc1 ?
Reply: 24.4

* * *

tested on: P. aeruginosa DH-5698; assay: Broth microdilution MIC/MBC; type: cell-based, Pseudomonus aeruginosa; details: Pseudomonas aeruginosa, DH5698, 24 h, read-out: MIC (Mean ± SEM)
Items are presented alongside their recorded MIC.
Answer format: numeric, µg/mL implied, no suffix.

These recorded examples may help you get a feel for the data.
[[record]]
molecule = "CCOC(=O)c1ccc(N=Nc2c(N)n[nH]c2N)cc1 [Compound 3a]"
outcome_measure = "MIC"
readout_number = 0.125

[[record]]
molecule = "NCC[C@H](O)C(=O)N[C@@H]1C[C@H](N)[C@@H](O[C@H]2O[C@H](CN)[C@@H](O)[C@H](O)[C@H]2O)[C@H](O)[C@H]1O[C@H]1O[C@H](CO)[C@@H](O)[C@H](N)[C@H]1O [AK, Amikacin, reference compound]"
outcome_measure = "MIC"
readout_number = 128

[[record]]
molecule = "CCOC(=O)c1ccc(N=Nc2c(N)nn(C(O)=CC#N)c2N)cc1 [Compound 4]"
outcome_measure = "MIC"
readout_number = 1.5

[[record]]
molecule = "CCOC(=O)c1ccc(N=Nc2c(N)nn3c(N)c(C#N)c(-c4ccc(Cl)cc4)nc23)cc1 [Compound 9c]"
outcome_measure = "MIC"
readout_number = 2

[[record]]
molecule = "CCOC(=O)c1ccc(N=Nc2c(N)nn3c(-c4ccc(Cl)cc4)cc(-c4ccccc4)nc23)cc1 [Compound 8c]"
outcome_measure = "MIC"
readout_number = 8

[[record]]
molecule = "CCOC(=O)c1ccc(N=Nc2c(N)nn(-c3ccccc3)c2N)cc1 [Compound 3b]"
outcome_measure = "MIC"
readout_number = 1

[[record]]
molecule = "CCOC(=O)c1ccc(N=Nc2c(N)nn(C(N)=S)c2N)cc1 [Compound 3c]"
outcome_measure = "MIC"
readout_number = 1

[[record]]
molecule = "CCOC(=O)c1ccc(N=Nc2c(N)nn3c2N=C(C)CC3=O)cc1 [Compound 7]"
outcome_measure = "MIC"
readout_number = 2


Ask: What value of MIC has been recorded for this entry: CCOC(=O)c1ccc(N=Nc2c(N)nn3c(-c4cccs4)cc(-c4ccccc4)nc23)cc1 [Compound 8a]
Reply: 2

* * *

test system: A. baumannii DH-243; assay: Agar well-diffusion assay; type: cell-based; details: Acinetobacter baumannii, DH243; A. baumannii DH-243; 50 µL of 10 mM per well; read-out: Diameter of Inhibition Zones (AZOI)
Outcome measure: zone of inhibition at 10000 µM (mm)
Report as a plain number; the unit mm is understood.

[[record]]
molecule = "CCOC(=O)c1ccc(N=Nc2c(N)nn(-c3ccccc3)c2N)cc1"
scale_unit = "mm"
readout_number = 23.1


Ask: Would you kindly share the measured zone of inhibition at 10000 µM for CCOC(=O)c1ccc(N=Nc2c(N)nn3c(N)c(C#N)c(-c4ccc(OC)cc4)nc23)cc1 ?
Reply: 23

Ask: Record: CCOC(=O)c1ccc(N=Nc2c(N)nn3c(-c4ccco4)cc(-c4ccccc4)nc23)cc1
Reply: 16.5

Ask: Likewise for CCOC(=O)c1ccc(N=Nc2c(N)nn3c2N=C(C)CC3=O)cc1 ?
Reply: 24.5

* * *

system: E. faecalis DH-5478
Listed below: log10(MIC) values for each entry.
Recall that a logarithmic scale is used here: each number is log10 of MIC in µg/mL.

Consider the reported log10(MIC) for these compounds:
[[record]]
compound = "CCOC(=O)c1ccc(N=Nc2c(N)nn(C(O)=CC#N)c2N)cc1"
assay_target = "E. faecalis DH-5478"
readout_number = 0.30

[[record]]
compound = "CCOC(=O)c1ccc(N=Nc2c(N)nn3c(N)c(C#N)c(-c4ccc(Cl)cc4)nc23)cc1"
assay_target = "E. faecalis DH-5478"
readout_number = 0.60


Here is another compound to look at.
Ask: Given the entry CCOC(=O)c1ccc(N=Nc2c(N)nn3c(O)c(C#N)c(-c4ccc(N(C)C)cc4)nc23)cc1 [Compound 10a] , report its measured log10(MIC).
Reply: -0.73
